Molecular target: Mab-SaS (Mycobacteroides abscessus, UniProt B1MAQ5)
Sequence (B1MAQ5 entry or part of it): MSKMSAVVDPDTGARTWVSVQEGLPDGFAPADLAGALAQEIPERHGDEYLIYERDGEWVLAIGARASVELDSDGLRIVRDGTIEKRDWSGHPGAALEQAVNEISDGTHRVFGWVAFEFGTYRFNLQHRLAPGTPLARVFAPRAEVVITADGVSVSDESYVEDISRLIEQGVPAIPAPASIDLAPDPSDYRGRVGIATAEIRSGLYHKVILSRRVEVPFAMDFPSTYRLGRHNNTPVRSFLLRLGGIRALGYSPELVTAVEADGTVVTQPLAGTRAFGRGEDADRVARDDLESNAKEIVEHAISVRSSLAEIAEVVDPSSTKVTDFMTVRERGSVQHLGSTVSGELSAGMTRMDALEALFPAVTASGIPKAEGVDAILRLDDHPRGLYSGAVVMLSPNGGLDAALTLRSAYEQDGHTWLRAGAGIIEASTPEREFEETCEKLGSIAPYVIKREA
Test: Mab-SaS inhibition, fluorimetric enzymatic assay
Assay type: biochemical, M. abscessus
Conditions: 0.01% (v/v) Triton X-100 (PAIN analysis); read-out: IC50 in the presence of Triton X-100
pIC50: −log10 of the molar value.

molecule	pIC50
O=C(O)c1ccc(-c2ccc(C(F)(F)F)cc2C(F)(F)F)o1 [Compound 1]	5.19

----------
Biological target: Mab-SaS (Mycobacteroides abscessus, UniProt B1MAQ5)
Test: Mab-SaS inhibition, fluorimetric enzymatic assay
Type: biochemical, M. abscessus
Details: 0.1 mg/mL bovine serum albumin (PAIN analysis); read-out: IC50 in the presence of BSA

compound	IC50
O=C(O)c1ccc(-c2ccc(C(F)(F)F)cc2C(F)(F)F)o1 [Compound 1]	5.2 µM

----------
Biological target: Mab-SaS (Mycobacteroides abscessus, UniProt B1MAQ5)
Assay: Mab-SaS inhibition, fluorimetric enzymatic assay
Assay type: biochemical, M. abscessus
Settings: 100 μM DTT in the reaction mixture; read-out: IC50 in the presence of DTT
pIC50: −log10 of the molar value.
experimentalEndpoint: pIC50

smilesEntry	quantitativeReadout
O=C(O)c1ccc(-c2ccc(C(F)(F)F)cc2C(F)(F)F)o1	5.21

----------
pKd: −log10 of the molar value.
Notes on pKd obtained with Mab-SaS (Mycobacteroides abscessus, UniProt B1MAQ5).
experimentalEndpoint: pKd

smilesEntry	quantitativeReadout
O=C(O)c1ccc(-c2ccc(C(F)(F)F)cc2C(F)(F)F)o1	5.21
O=C(O)c1ccc(-c2cc(C(F)(F)F)cc(C(F)(F)F)c2)o1	4.17
Nc1cc([N+](=O)[O-])ccc1-c1ccc(C(=O)O)o1	4.90
